target_under_test: T1, AFP158/HLA-A*02:01 complex (human)
T1 construct: biotinylated on the BSP by BirA for ELISA and panning; also called biotinylated AFP158/HLA-A*02:01 complex; Bio-AFP158
test: SPR; vs AS170036 VL1VH1
Reported Affinity increase values for a set of binders

[
  {
    "binder": "AS170036 VL1VH1-VHS57H (scFv) scFv: QSALTQPRSVSGSPGQSVTISCAGTSSDVGSENYVSWYQQHPGKAPKLMIYQVNKRASGVPDRFSGSKSGNTASLTISGLQAEDEADYYCASYRSSDHNIVFGGGTKLTVLGGGGSGGGGSGGGGSEVQLVESGGGLVQPGGSLRLSCAASGFTFSSYAMSWVRQAPGKGLEWVSTINSGTGHPYYADSVKGRFTISRDNSKNTLYLQMNSLRAEDTAVYYCAKNFFDGSWFLGPPAMDYWGQGTLVTVSSHHHHHH",
    "Affinity increase": "> 2 fold"
  }
]

Shifting focus to the binder that follows.
Affinity increase for AS170036 VL1VH1-VHS57R (scFv) scFv: QSALTQPRSVSGSPGQSVTISCAGTSSDVGSENYVSWYQQHPGKAPKLMIYQVNKRASGVPDRFSGSKSGNTASLTISGLQAEDEADYYCASYRSSDHNIVFGGGTKLTVLGGGGSGGGGSGGGGSEVQLVESGGGLVQPGGSLRLSCAASGFTFSSYAMSWVRQAPGKGLEWVSTINSGTGRPYYADSVKGRFTISRDNSKNTLYLQMNSLRAEDTAVYYCAKNFFDGSWFLGPPAMDYWGQGTLVTVSSHHHHHH is > 2 fold
